Below, each of the molecules is paired with its reported pEC50 value.
- Tested on: Bloodstream form of Trypanosoma brucei, strain Lister 427
- PROTOCOL: Trypanosoma brucei growth inhibition assay (CellTiter-Glo, 24 h)
- Format: cell-based
- TEST_PARAMETERS: Trypanosoma brucei; T. Brucei Growth Inibition Assay, class symbols; read-out: T. Brucei GI EC50
pEC50: −log10 of the molar value.
MEASURE_NAME: pEC50

- MOLECULE: "COc1ccc2nc(C(F)(F)F)n(CC(=O)N3CCN(CCc4ccccn4)CCC3c3ncc(-c4cc5ccccc5nc4OC)[nH]3)c2c1 (stereo not drawn)"
  MEASURED_VALUE: "6.30 to 7.00"
- MOLECULE: "COc1ccc2c(c1)C(CC(=O)N1CCN(C)CC1c1ncc(-c3ccc4ccccc4c3)[nH]1)C(=O)N2 (stereo not drawn)"
  MEASURED_VALUE: "5.30 to 6.00"
- MOLECULE: "COc1ccc2nc(C)n(CC(=O)N3CCN(CC4COC4)CCC3c3ncc(-c4cc5ccccc5nc4OC)[nH]3)c2c1 (stereo not drawn)"
  MEASURED_VALUE: "6.00 to 6.29"
- MOLECULE: "COc1ccc2nc(C(F)(F)F)n(CC(=O)N3CCN(Cc4nccs4)C[C@H]3c3ncc(-c4cc5ccccc5nc4OC)[nH]3)c2c1"
  MEASURED_VALUE: "> 7.00"
- MOLECULE: "COc1nc2ccccc2cc1-c1cnc([C@@H]2CCN(Cc3ccn(C)n3)CCN2C(=O)[C@@](OC)(c2ccccc2)C(F)(F)F)[nH]1"
  MEASURED_VALUE: "5.30 to 6.00"
- MOLECULE: "COc1nc2ccccc2cc1-c1cnc([C@@H]2CN(Cc3ccn(C)n3)CCN2C(=O)Cn2c(C(F)(F)F)nc3ccccc32)[nH]1"
  MEASURED_VALUE: "> 7.00"
- MOLECULE: "COc1cc2nc(C(F)(F)F)n(CC(=O)N3CCN(CC4CCOC4)C[C@H]3c3ncc(-c4cc5ccccc5nc4OC)[nH]3)c2cc1OC (stereo partly drawn)"
  MEASURED_VALUE: "> 7.00"
- MOLECULE: "COc1ccc2nc(C(F)(F)F)n(CC(=O)N3CC[C@H](N[C@@H]4CCOC4)C[C@H]3c3ncc(-c4cc5ccccc5nc4OC)[nH]3)c2c1"
  MEASURED_VALUE: "> 7.00"
- MOLECULE: "COc1ccc2nc(C(F)(F)F)n(CC(=O)N3CC[C@H](NCC4COC4)C[C@H]3c3ncc(-c4cc5ccccc5nc4OC)[nH]3)c2c1"
  MEASURED_VALUE: "> 7.00"
- MOLECULE: "COc1ccc2nc(C(F)(F)F)n(CC(=O)N3CCN(C4CCCC4)CCC3c3ncc(-c4cc5ccccc5nc4OC)[nH]3)c2c1 (stereo not drawn)"
  MEASURED_VALUE: "6.30 to 7.00"
- MOLECULE: "COc1ccc2[nH]c(C)c(CC(=O)N3CCN(C)CCC3c3ncc(-c4ccc5ccccc5c4)[nH]3)c2c1 (stereo not drawn)"
  MEASURED_VALUE: "6.30 to 7.00"
- MOLECULE: "COc1nc2ccccc2cc1-c1cnc(C2CN(CC3CCOC3)CCN2C(=O)Cc2ccc(N3CCNC3=O)cc2)[nH]1 (stereo not drawn)"
  MEASURED_VALUE: "5.30 to 6.00"
- MOLECULE: "COc1nc2ccccc2cc1-c1cnc([C@@H]2CN(Cc3cccnc3)CCN2C(=O)Cn2c(C(F)(F)F)nc3ccccc32)[nH]1"
  MEASURED_VALUE: "> 7.00"
- MOLECULE: "O=C(Cc1c[nH]c2ccc(O)cc12)N1CCN(CC2CC2)CC1c1ncc(-c2ccc3ccccc3c2)[nH]1 (stereo not drawn)"
  MEASURED_VALUE: "5.30 to 6.00"
- MOLECULE: "COc1ccc2[nH]c(C)c(CC(=O)N3CCN(CC4CCOC4)CC3c3ncc(-c4ccc5ccccc5c4)[nH]3)c2c1 (stereo not drawn)"
  MEASURED_VALUE: "> 7.00"
- MOLECULE: "COc1ccc2nc(C)n(CC(=O)N3CCN(CC4CCOC4)C[C@H]3c3ncc(C#Cc4ccccn4)[nH]3)c2c1 (stereo partly drawn)"
  MEASURED_VALUE: "5.30 to 6.00"
- MOLECULE: "COc1ccc2[nH]c(C)c(CC(=O)N3CCNCC3c3ncc(-c4cc5ccccc5nc4OC)[nH]3)c2c1 (stereo not drawn)"
  MEASURED_VALUE: "6.00 to 6.29"
- MOLECULE: "Cc1[nH]c2ccc(F)cc2c1CC(=O)N1CCN(CC2CCOC2)CC1c1ncc(-c2ccc(-n3cccn3)cc2)[nH]1 (stereo not drawn)"
  MEASURED_VALUE: "5.30 to 6.00"
- MOLECULE: "COc1ccc2nc(C(F)(F)F)n(CC(=O)N3CCN(Cc4cnc(C)s4)CCC3c3ncc(-c4cc5ccccc5nc4OC)[nH]3)c2c1 (stereo not drawn)"
  MEASURED_VALUE: "6.30 to 7.00"
- MOLECULE: "COc1nc2ccccc2cc1-c1cnc([C@@H]2CN(CC3CCOC3)CCN2C(=O)Cn2c(C(F)(F)F)nc3ccccc32)[nH]1 (stereo partly drawn)"
  MEASURED_VALUE: "> 7.00"
- MOLECULE: "O=C(Cc1n[nH]c2ccccc12)N1CCN(CCc2ccccc2)CC1c1ncc(-c2ccc3ccccc3c2)[nH]1 (stereo not drawn)"
  MEASURED_VALUE: "5.30 to 6.00"
- MOLECULE: "COc1ccc2cc(C)n(CC(=O)N3CCCCC3c3ncc(-c4cc5ccccc5nc4OC)[nH]3)c2c1 (stereo not drawn)"
  MEASURED_VALUE: "6.30 to 7.00"
- MOLECULE: "COc1ccc2nc(C(F)(F)F)n(CC(=O)N3CC[C@H](NCC(C)C)C[C@H]3c3ncc(-c4cc5ccccc5nc4OC)[nH]3)c2c1"
  MEASURED_VALUE: "> 7.00"
- MOLECULE: "COc1ccc2nc(C(F)(F)F)n(CC(=O)N3CC[C@H](N4CCCC4)C[C@H]3c3ncc(-c4cc5ccccc5nc4OC)[nH]3)c2c1"
  MEASURED_VALUE: "> 7.00"
- MOLECULE: "COc1ccc2nc(C(F)(F)F)n(CC(=O)N3CCN(CCc4ccnn4C)CCC3c3ncc(-c4cc5ccccc5nc4OC)[nH]3)c2c1 (stereo not drawn)"
  MEASURED_VALUE: "> 7.00"
- MOLECULE: "COc1nc2ccccc2cc1-c1cnc(C2CN(CC3CCOC3)CCN2C(=O)Cn2c(C)nc3cc(F)c(F)cc32)[nH]1 (stereo not drawn)"
  MEASURED_VALUE: "6.30 to 7.00"
- MOLECULE: "CCCCCCN1CCN(C(=O)CC2=C(C)NC3C=CC=CC23)C(c2ncc(-c3cc4ccccc4nc3O)[nH]2)C1 (stereo not drawn)"
  MEASURED_VALUE: "5.30 to 6.00"
- MOLECULE: "O=C(Cc1n[nH]c2ccccc12)N1CCN(CC2CCOC2)CC1c1ncc(-c2ccc3ccccc3c2)[nH]1 (stereo not drawn)"
  MEASURED_VALUE: "5.30 to 6.00"
- MOLECULE: "COc1ccc2nc(C)n(CC(=O)N3CCN(Cc4ccn(C)n4)CC[C@@H]3c3ncc(-c4cc5ccccc5nc4OC)[nH]3)c2c1"
  MEASURED_VALUE: "> 7.00"
- MOLECULE: "COc1ccc2nc(C(F)(F)F)n(CC(=O)N3C[C@@H](NC4CCOC4)CC[C@H]3c3ncc(-c4cc5ccccc5nc4OC)[nH]3)c2c1 (stereo partly drawn)"
  MEASURED_VALUE: "6.00 to 6.29"
